- MEASUREMENT_DESCRIPTION: Circular dichroism (CD) spectroscopy of pH-triggered self-assembly transition in 150 mM NaCl, 2.2 mM CaCl2
- Type: physicochemical
- ASSAY_CONDITIONS: basic to acidic transition from spherical micelle to cylindrical fiber; simulated serum environment (150 mM NaC, 2.2 mM CaCl2)
- Procedure: The target PA concentration (10 μM) was below the detectable limit of conventional techniques to determine the morphology such as cryoTEM and small-angle X-ray scattering. Consequently, circular dichroism (CD) spectroscopy was initially used to characterize the morphology of these PAs at various pH values. […]
*: point of attachment. Palmitoyl = CCCCCCCCCCCCCCCC(=O)*
Examples of substances with documented pH transition point at 10 μm PA follow.
The reply should be a number, written without any unit.

The cases that follow already have their pH transition point at 10 μm PA on record.
[[record]]
substance = "Palmitoyl-IAAAEEEEK(DO3A:Gd)-NH2 (Palmitoyl-IAAAEEEEK(DO3A)-NH2; also: DO3A chelates Gd) [PA5]"
measurement_name = "pH transition point at 10 μm PA"
reported_value = 5.7

[[record]]
substance = "Palmitoyl-VAAAEEEEK(DO3A:Gd)-NH2 (Palmitoyl-VAAAEEEEK(DO3A)-NH2; also: DO3A chelates Gd) [PA6]"
measurement_name = "pH transition point at 10 μm PA"
reported_value = 5.3

[[record]]
substance = "Palmitoyl-IAAAEEEEK(DO3A:Tb)-NH2 (Palmitoyl-IAAAEEEEK(DO3A)-NH2; also: DO3A chelates Tb) [PA7]"
measurement_name = "pH transition point at 10 μm PA"
reported_value = 5.7


stdin: Quote pH transition point at 10 μm PA reported for Palmitoyl-YAAAEEEEK(DO3A:Gd)-NH2 (Palmitoyl-YAAAEEEEK(DO3A)-NH2; also: DO3A chelates Gd) [PA9] please.
stdout: 5.1

stdin: Quote pH transition point at 10 μm PA reported for Palmitoyl-IAAAEEEEK(DO3A:Lu)-NH2 (Palmitoyl-IAAAEEEEK(DO3A)-NH2; also: DO3A chelates Lu) [PA8] please.
stdout: 5.7
